Data origin: PubChem BioAssay (NCATS)

test: Primary qHTS for inhibitors of nuclear receptor binding SET domain protein 2 (NSD2) in an RCH-ACV wild type WT cells (2C) (AID 1645877); conditions: RCH-ACV (leukaemia line) NSD2 WT (2C) viability, CellTiter-Glo, 72 h; series mostly up to 44.9 µM; further: on the % scale 0 is the no-effect control and ±100 the full control effect; nearly all actives have a fitted effect of over 70% in size
Inconclusive results are not listed. Activity calls are given as the source filed them. The call rests on the fitted dose curve; in most records, active means well fitted inhibition curve with a large enough effect; inconclusive means small, poorly fitted or top-dose-only effect; inactive means no such curve, though single readings can be large or run the other way.
Could you please report measured activity change, negative = cell killing for the items listed next?

Please look up its activity change, negative = cell killing: C[C@@H]1O[C@@H](O[C@@H]2[C@@H](O)[C@H](O[C@H]3CC[C@@]4(C)C(CC[C@]5(C)C4CC=C4[C@@H]6CC(C)(C)CC[C@]6(C(=O)O[C@@H]6O[C@H](CO)[C@@H](O)[C@H](O)[C@H]6O)CC[C@]45C)C3(C)C)O[C@H](C(=O)O)[C@H]2O)[C@H](O)[C@H](O)[C@H]1O (stereo partly drawn) -14.9% [at 9.23 µM] (inactive)

Please look up its activity change, negative = cell killing: C[C@@H]1O[C@@H](O[C@H]2[C@H](O[C@H]3CC[C@@]4(C)C(CC[C@]5(C)C4CC=C4[C@@H]6CC(C)(C)CC[C@]6(C(=O)O[C@@H]6OC[C@H](O)[C@H](O)[C@H]6O[C@@H]6O[C@@H](C)[C@H](O[C@@H]7O[C@H](CO)[C@@H](O)[C@H](O)[C@H]7O)[C@H](O)[C@H]6O)[C@H](O)C[C@]45C)C3(C)C)O[C@H](CO)[C@@H](O[C@@H]3OC[C@@H](O)[C@H](O)[C@H]3O)[C@@H]2O)[C@H](O)[C@H](O)[C@H]1O (stereo partly drawn) -15.2% [at 9.23 µM] (inactive)

Please look up its activity change, negative = cell killing: `CC(C)C[C@H](CC(=O)NO)C(=O)N[C@H](C(=O)N[C@@H](C)C(=O)NCCN)C(C)(C)C` -8.71% [at 9.23 µM] (inactive)

---

tested on: PA-1; test: Primary qHTS to identify gynecologic anti-cancer compounds using libraries of approved drugs and bioactive compounds (AID 1345084); details: Gynecologic cancer cell panel viability, ATPlite luminescence, 48 h; series mostly up to 57.5 µM; further: on the % scale 0 is the no-effect control and ±100 the full control effect; nearly all actives have a fitted effect of over 55% in size
Results filed as inconclusive are left out. Active and inactive are the calls of the source. The call rests on the fitted dose curve; in most records, active means well fitted cell-killing curve with a large enough effect; inconclusive means small, poorly fitted or top-dose-only effect, or effect the other way; inactive means flat fitted curve, though single readings scatter.
MEASURED_METRIC: outcome

Take a look at these entries with their results.
- SMILES_STR: "N#C[C@@H]1CCCN1C(=O)CNC12CC3CC(CC(O)(C3)C1)C2"
  OBSERVED: "inactive"
- SMILES_STR: "O=C(NCc1ccccn1)Nc1nnc(-c2ccco2)o1"
  OBSERVED: "inactive"
- SMILES_STR: "Cc1cc(C(=O)N2Cc3cnn(C)c3Nc3ccccc32)ccc1CNC(=O)N1CCC[C@H]1C(=S)N1CCCN(C)CC1"
  OBSERVED: "inactive"
- SMILES_STR: "OC/C=C/c1ccc(O[C@@H]2O[C@H](CO)[C@@H](O)[C@H](O)[C@H]2O)cc1"
  OBSERVED: "inactive"

--- query ---
Please look up its outcome: `O=C(Nc1ccc(-c2ccncc2)cc1)N[C@H](CO)c1ccccc1` inactive

---

tested on: Zika virus NS2B-NS3 protease (linked construct); test: Primary screen NINDS Rhodamine qHTS for Zika virus inhibitors (AID 1347160); conditions: purified NS2B-NS3 protease, Rhodamine110 substrate fluorescence; series mostly up to 57.1 µM; further: nearly all actives have a fitted effect of over 55% in size
Results filed as inconclusive are left out. Calls of active or inactive are those of the source. Calls come from the whole dose curve; as a rule, active = well fitted inhibition curve with a large enough effect; inconclusive = small, poorly fitted or top-dose-only effect; inactive = no such curve, though single readings can be large or run the other way.
MEASURED_METRIC: outcome

Take a look at these entries with their results.
- COMPOUND: "CN=C(N)NCCCCC/C=C(/C)CC(C)C1OC(=O)C(C)C(O)/C=C/C(C)C(O)CC(O)C(C)C(O)CCC(C)C(O)CC2(O)OC(CC(OC(=O)CC(=O)O)CC(O)CC(O)C(C)C(O)/C(C)=C/CCC1C)CC(O)C2O (stereo unspecified)"
  outcome: "inactive"
- COMPOUND: "O=C(c1ccccc1)c1ccc2nc(NC(=O)c3csc(C4CCN(c5ncnc6ccsc56)CC4)n3)[nH]c2c1"
  outcome: "inactive"
- COMPOUND: "C=C1[C@H](OC(C)=O)[C@H]2[C@@H](OC(C)=O)[C@](C)(OC(C)=O)C[C@]2(OC(C)=O)C(=O)[C@H](C)/C=C/C(C)(C)C(=O)[C@H](OC(=O)C(C)C)[C@H]1OC(C)=O"
  outcome: "inactive"
- COMPOUND: "CC1COC(Nc2ccc3ncnc(Nc4ccc(OCc5nccs5)c(Cl)c4)c3c2)=N1 (stereo unspecified)"
  outcome: "inactive"
- COMPOUND: "OC[C@H]1O[C@@H](Oc2ccccc2)[C@H](O)[C@@H](O)[C@@H]1O"
  outcome: "inactive"

Please look up its outcome: C=C1CCCC2(C)CC3(OC)OC(=O)C(C)=C3CC12 (stereo unspecified) inactive

Please look up its outcome: CC(=O)C=C=C1C(C)(C)CC(O[C@@H]2O[C@H](CO)[C@@H](O)[C@H](O)[C@H]2O)CC1(C)O (stereo partly specified) inactive

Please look up its outcome: `CCO[C@@H]1OC(=O)C[C@@H]1NC(=O)[C@@H]1CCCN1C(=O)[C@@H](NC(=O)c1ccc(N)c(Cl)c1)C(C)(C)C` inactive

Please look up its outcome: O=C(O[C@H]1[C@@H]2C[C@@H]3OC[C@](O)([C@@H]1Cl)[C@H]2C(O[C@@H]1O[C@H](CO)[C@@H](O)[C@H](O)[C@H]1O)O3)c1ccc(O)c(O)c1 (stereo partly specified) inactive

Please look up its outcome: C=CC(C)(C)c1[nH]c2cc3c(cc2c1CC1NC(=O)C2=CCCN2C1=O)C=CC(C)(C)O3 (stereo unspecified) inactive

Please look up its outcome: C=C(C)C(=O)OC1CC2(C)OC(=CC2=O)C(=C)CC2OC(=O)C(COC)C12 (stereo unspecified) inactive

Please look up its outcome: Cc1cnc(NC(=O)Nc2cc(Br)c(C)cc2OCC2CNCCO2)cn1 (stereo unspecified) inactive

Please look up its outcome: O=C1NC(Cc2ccccc2)C(=O)N2CCCC12 (stereo unspecified) inactive

Please look up its outcome: CC12CCC(=O)C=C1C(O)CC1C2C(O)CC2(C)C1CC[C@]2(O)C(=O)CO (stereo partly specified) inactive

Please look up its outcome: `Nc1nc2c(ncn2[C@@H]2O[C@H](CO)[C@@H](O)[C@H]2O)c(=O)[nH]1` inactive

Please look up its outcome: CC(=O)OC1CC2(C)C3=CCC4(C)C5C(O)C(O)C(C(C)C)C5(C)CCC4(C)C3CCC2C(C)(C)C1OC1OC(CO)C(O)C(O)C1O (stereo unspecified) inactive

---

system: HEK293; test: Cytotoxic Profiling of Annotated Libraries Using Quantitative High-Throughput Screening (AID 1296008); conditions: Five cell lines viability, CellTiter-Glo ATP luminescence, 48-72 h; further: nearly all actives have a fitted effect of over 60% in size
Inconclusive results are not listed. Activity calls are given as the source filed them. The call rests on the fitted dose curve; in most records, active means well fitted inhibition curve with a large enough effect; inconclusive means small, poorly fitted or top-dose-only effect; inactive means flat fitted curve, though single readings scatter.
Please answer using one outcome listed in active, inactive

What was the test verdict on `Cc1cc(-c2cc(O)ccc2Cl)cc2nnc(Nc3ccc(OCCN4CCCC4)cc3)nc12` ? active

What was the test verdict on CC(=O)OC1C(=O)C2(C)C(O)CC3OCC3(OC(C)=O)C2C(OC(=O)c2ccccc2)C2(O)CC(OC(=O)C(O)C(NC(=O)c3ccccc3)c3ccccc3)C(C)=C1C2(C)C (stereo not given) ? active

What was the test verdict on `C=C1CN(Cc2ccc(C(=O)Nc3ccccc3N)cc2)C(=O)c2ccccc21` ? active

What was the test verdict on `CC(C)c1ccc(CO)cc1O[C@@H]1O[C@H](CO)[C@@H](O)[C@H](O)[C@H]1O` ? inactive

What was the test verdict on `COc1cc2c(cc1O)CC[C@H]1[C@@H]2CC[C@]2(C)[C@H](O)CC[C@@H]12` ? active

What was the test verdict on `CN1CCN(C(=O)c2ccc3cc(CCNc4ncnc5ccc(C#N)cc45)ccc3c2)CC1` ? active

What was the test verdict on `COc1cc2nc(N3CCC(N4CCCCC4)CC3)nc(NC3CCCCCC3)c2cc1OC` ? active

What was the test verdict on `CC/C=C\CCO[C@@H]1O[C@H](CO[C@@H]2OC[C@H](O)[C@H](O)[C@H]2O)[C@@H](O)[C@H](O)[C@H]1O` ? inactive

What was the test verdict on `N#Cc1ccc2[nH]cc(CCCCN3CCN(c4ccc5oc(C(N)=O)cc5c4)CC3)c2c1` ? active

What was the test verdict on Nc1nccn2c(C3CCC(C(=O)O)CC3)nc(-c3cc4cccc(Cl)c4[nH]3)c12 (stereo not given) ? active

---

Could you please report measured activity change, negative = inhibition for the items listed next?
test system: Zika virus NS2B-NS3 protease (linked construct); test: Primary screen NINDS Rhodamine qHTS for Zika virus inhibitors (AID 1347160); conditions: purified NS2B-NS3 protease, Rhodamine110 substrate fluorescence; series mostly up to 57.1 µM; further: nearly all actives have a fitted effect of over 55% in size; on activity change, negative = inhibition: on the % scale 0 is the no-effect control and ±100 the full control effect
Inconclusive results are not listed. Calls of active or inactive are those of the source. Calls follow the shape of the dose curve; as a rule, active = well fitted inhibition curve with a large enough effect; inconclusive = small, poorly fitted or top-dose-only effect; inactive = no such curve, though single readings can be large or run the other way.

Please look up its activity change, negative = inhibition: C[C@@H]1O[C@@H](O[C@H]2[C@H](O[C@H]3[C@H](O[C@H]4CC[C@@]5(C)C(CC[C@]6(C)C5CC=C5[C@@H]7CC(C)(C)CC[C@]7(C(=O)O[C@@H]7O[C@H](CO)[C@@H](O[C@@H]8O[C@@H](C)[C@H](O)[C@@H](O)[C@H]8O)[C@H](O)[C@H]7O)CC[C@]56C)C4(C)C)OC[C@H](O)[C@@H]3O)O[C@H](CO)[C@@H](O)[C@@H]2O)[C@H](O)[C@H](O)[C@H]1O (stereo partly specified) 35.2% [at 10.7 µM] (inactive)

Please look up its activity change, negative = inhibition: C[C@@H]1O[C@@H](O[C@H]2[C@H](O)[C@@H](O[C@@H]3O[C@H](CO)[C@@H](O)[C@H](O[C@@H]4O[C@H](CO)[C@@H](O)[C@H](O)[C@H]4O)[C@H]3O)[C@H](O[C@H]3CC[C@@]4(C)C(=CC[C@@H]5C4CC[C@@]4(C)C5C[C@@H]5OC6(CC[C@@](C)(CO[C@@H]7O[C@H](CO)[C@@H](O)[C@H](O)[C@H]7O)O6)[C@@H](C)[C@@H]54)C3)O[C@@H]2CO)[C@H](O)[C@H](O)[C@H]1OC1OC(CO)C(O)C(O)C1O (stereo partly specified) -10.4% [at 10.7 µM] (inactive)

Please look up its activity change, negative = inhibition: CC1(C)CC[C@]2(C(=O)O[C@@H]3O[C@H](CO[C@@H]4O[C@H](CO)[C@@H](O)[C@H](O)[C@H]4O[C@@H]4O[C@H](CO)[C@H](O)[C@H](O)[C@H]4O)[C@@H](O)[C@H](O[C@@H]4O[C@H](CO)[C@@H](O)[C@H](O)[C@H]4O)[C@H]3O)CC[C@]3(C)C(=CCC4[C@@]5(C)CC[C@H](O[C@@H]6OC[C@@H](O)[C@H](O)[C@H]6O)[C@@](C)(C(=O)O)C5CC[C@]43C)[C@@H]2C1 (stereo partly specified) -4.93% [at 10.7 µM] (inactive)

Please look up its activity change, negative = inhibition: `O=S(=O)(Nc1ccccn1)c1ccc(N=Cc2c(O)[nH]c3ccc4ncsc4c23)cc1` 12% [at 10.7 µM] (inactive)

Please look up its activity change, negative = inhibition: `CC(=O)N[C@@H](CCCCN)C(=O)N(C)[C@@H](CC(C)C)C(=O)N[C@H](C(=O)N(C)[C@@H](Cc1ccccc1)C(=O)N[C@H](Cc1ccccc1)C(N)=O)C(C)C` 25% [at 4.91 µM] (inactive)

Please look up its activity change, negative = inhibition: C[C@@H]1O[C@@H](O[C@@H]2[C@@H](O)[C@H](O[C@H]3[C@H](O[C@H]4CC[C@@]5(C)C(CC[C@]6(C)C5CC=C5[C@@H]7CC(C)(C)CC[C@]7(C(=O)O[C@@H]7O[C@H](CO)[C@@H](O)[C@H](O)[C@H]7O[C@@H]7O[C@@H](C)[C@H](O[C@@H]8O[C@@H](C)[C@H](O)[C@@H](O)[C@H]8O)[C@@H](O)[C@H]7O)CC[C@]56C)[C@@]4(C)CO)O[C@H](C(=O)O)[C@@H](O)[C@@H]3O)O[C@H](CO)[C@H]2O)[C@H](O)[C@H](O)[C@H]1O (stereo partly specified) 3.12% [at 10.7 µM] (inactive)
